The measured values listed here are drawn from paper PMC9862096.

Entries and their pKd values follow.
biological target: mouse P–gp (mP–gp) (Mus musculus, UniProt P21447); construct: made in house; host or cells: High-Five insect cells (Invitrogen), recombinant baculovirus; total membrane vesicles; assay: P–gp ATPase activity (vanadate-sensitive, end point Pi release) in native membranes; format: biochemical; details: Equation (S1), total modulator concentration; constraint K1≤K2 for NBD–C8 and NBD–LysoMPE; [75% confidence interval]; read-out: K2, dissociation constant for P–gp inhibition
Sequence (P21447 whole entry): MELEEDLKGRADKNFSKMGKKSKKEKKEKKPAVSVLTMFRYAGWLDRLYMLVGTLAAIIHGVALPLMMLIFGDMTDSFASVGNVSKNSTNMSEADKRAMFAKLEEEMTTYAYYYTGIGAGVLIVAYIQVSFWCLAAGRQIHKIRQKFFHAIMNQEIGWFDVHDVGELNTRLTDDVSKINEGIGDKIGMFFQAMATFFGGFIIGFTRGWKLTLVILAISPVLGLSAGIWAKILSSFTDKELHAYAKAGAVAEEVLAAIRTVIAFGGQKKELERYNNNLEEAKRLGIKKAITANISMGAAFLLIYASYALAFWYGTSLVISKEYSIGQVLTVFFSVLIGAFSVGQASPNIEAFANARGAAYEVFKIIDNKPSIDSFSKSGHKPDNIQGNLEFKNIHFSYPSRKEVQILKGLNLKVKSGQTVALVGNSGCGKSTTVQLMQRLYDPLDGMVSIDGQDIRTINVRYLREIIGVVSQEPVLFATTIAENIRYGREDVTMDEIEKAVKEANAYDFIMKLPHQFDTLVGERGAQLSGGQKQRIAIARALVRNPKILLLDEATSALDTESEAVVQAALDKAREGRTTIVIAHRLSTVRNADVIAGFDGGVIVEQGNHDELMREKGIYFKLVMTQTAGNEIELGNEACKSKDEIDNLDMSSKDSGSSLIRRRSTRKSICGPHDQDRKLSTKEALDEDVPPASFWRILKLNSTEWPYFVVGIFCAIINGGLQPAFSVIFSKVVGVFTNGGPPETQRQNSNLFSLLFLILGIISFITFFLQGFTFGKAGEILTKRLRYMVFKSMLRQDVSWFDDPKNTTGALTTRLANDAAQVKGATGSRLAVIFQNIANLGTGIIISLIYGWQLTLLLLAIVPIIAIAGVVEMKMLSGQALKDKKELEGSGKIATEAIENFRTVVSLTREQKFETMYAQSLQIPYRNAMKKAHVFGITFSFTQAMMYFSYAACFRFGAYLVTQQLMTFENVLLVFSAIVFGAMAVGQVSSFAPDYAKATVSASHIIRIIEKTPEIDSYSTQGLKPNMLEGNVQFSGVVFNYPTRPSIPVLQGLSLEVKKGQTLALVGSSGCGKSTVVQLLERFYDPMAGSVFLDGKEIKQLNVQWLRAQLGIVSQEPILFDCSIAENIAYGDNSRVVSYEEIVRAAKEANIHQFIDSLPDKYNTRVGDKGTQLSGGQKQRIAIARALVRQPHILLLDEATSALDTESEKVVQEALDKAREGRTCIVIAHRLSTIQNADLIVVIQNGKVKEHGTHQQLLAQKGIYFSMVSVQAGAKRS
pKd: −log10 of the molar value.

smiles-record | relation-qualifier | pKd
CCCCCCCCNc1ccc([N+](=O)[O-])c2nonc12 | = | 4.54
CCCCNc1ccc([N+](=O)[O-])c2nonc12 | < | 4.22

###

biological target: mouse P–gp (mP–gp) (Mus musculus, UniProt P21447); construct: made in house; host or cells: High-Five insect cells (Invitrogen), recombinant baculovirus; total membrane vesicles; test: P–gp ATPase activity (vanadate-sensitive, end point Pi release) in native membranes; type: biochemical; details: Equation (S1), total modulator concentration; no constraint between K1 and K2; [75% confidence interval]; read-out: K2, dissociation constant for P–gp inhibition
pKd: −log10 of the molar value.

compound | relation-qualifier | pKd
CCCCCCCCCCCCCC(=O)OCC(O)COP(=O)(O)OCCNc1ccc([N+](=O)[O-])c2nonc12 (centres unmarked) [NBD–LysoMPE] | ≥ | 4.82
CCCCCCCCNc1ccc([N+](=O)[O-])c2nonc12 [NBD–C8] | = | 4.54

###

biological target: mouse P–gp (mP–gp) (Mus musculus, UniProt P21447); construct: made in house; host or cells: High-Five insect cells (Invitrogen), recombinant baculovirus; total membrane vesicles; assay: P–gp ATPase activity (vanadate-sensitive, end point Pi release) in native membranes; assay type: biochemical; settings: Equation (9), local concentrations, n = 5 binding sites; read-out: Kd, microscopic dissociation constant

molecule | Kd
CCCCNc1ccc([N+](=O)[O-])c2nonc12 | 9 µM
CCCCCCCCCCCCCC(=O)OCC(O)COP(=O)(O)OCCNc1ccc([N+](=O)[O-])c2nonc12 (stereo not drawn) | 3 µM
CCCCCCCCNc1ccc([N+](=O)[O-])c2nonc12 | 6 µM

###

Entries and their LogKP, association with the native membranes values follow.
experiment: Association (partition) of the NBD amphiphiles with native membranes, NBD fluorescence; format: physicochemical, High-Five insect cells; conditions: 37 °C, simplified ATPase assay buffer
readout-type: LogKP, association with the native membranes

molecule | value-reported
CCCCCCCCCCCCCC(=O)OCC(O)COP(=O)(O)OCCNc1ccc([N+](=O)[O-])c2nonc12 (stereo not shown) | 4.34 ± 0.25
CCCCCCNc1ccc([N+](=O)[O-])c2nonc12 | 3.20 ± 0.26
CCCCCCCCNc1ccc([N+](=O)[O-])c2nonc12 | 3.95 ± 0.14
CCCCNc1ccc([N+](=O)[O-])c2nonc12 | 2.75 ± 0.20

###

biological target: mP–gp (Mus musculus); construct: made in house; host or cells: High-Five insect cells (Invitrogen), recombinant baculovirus; total membrane vesicles; experiment: Photolabeling of P–gp with [125I]-IAAP / IAAP displacement; assay type: binding; details: Equation (S2), total concentrations; native membranes 1.0 mg/mL; read-out: dissociation constant, competitive inhibition of IAAP binding
Sequence (P21447 whole entry): as above
pKi: −log10 of the molar value.
Entries and their pKi values follow.

compound | pKi
CCCCCCCCCCCCCC(=O)OCC(O)COP(=O)(O)OCCNc1ccc([N+](=O)[O-])c2nonc12 (stereo not drawn) | 4.64
CCCCCCCCNc1ccc([N+](=O)[O-])c2nonc12 | 5.40
CCCCNc1ccc([N+](=O)[O-])c2nonc12 | 4.85

###

Entries and their pKd values follow.
molecular target: mouse P–gp (mP–gp) (Mus musculus, UniProt P21447); construct: made in house; host or cells: High-Five insect cells (Invitrogen), recombinant baculovirus; total membrane vesicles; assay: P–gp ATPase activity (vanadate-sensitive, end point Pi release) in native membranes; format: biochemical; settings: Equation (9), local concentrations, n = 2 binding sites; read-out: Kd, microscopic dissociation constant
pKd: −log10 of the molar value.

compound | pKd
CCCCCCCCCCCCCC(=O)OCC(O)COP(=O)(O)OCCNc1ccc([N+](=O)[O-])c2nonc12 (stereo not drawn) | 5.22
CCCCNc1ccc([N+](=O)[O-])c2nonc12 | 4.74
CCCCCCCCNc1ccc([N+](=O)[O-])c2nonc12 | 4.96
